As shown below, each of these binders has a reported EC50 value.
- target_or_test_system: T1, human CLDN9 (UniProt O95484 1-217)
- T1 chain: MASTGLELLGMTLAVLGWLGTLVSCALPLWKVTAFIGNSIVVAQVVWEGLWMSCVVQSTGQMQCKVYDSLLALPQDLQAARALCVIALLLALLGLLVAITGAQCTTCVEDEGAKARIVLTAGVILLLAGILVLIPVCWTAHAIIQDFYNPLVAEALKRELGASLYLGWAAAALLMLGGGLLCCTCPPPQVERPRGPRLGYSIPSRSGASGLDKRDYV
- assay_summary: HEK293E cell binding; avid
Number in µg/mL, nothing else.

A selection of reference data follows.
- binder: "XENP35891 H2.12_L1 (antibody, V domains shown) VH: EVQLVQSGAEVKKPGESLRISCKTSGYDFTEYTMHWVRQMPGKSLEWMGGIDPNNGNTHYNQKFQGHVTISVDKSISTAYLQWSSLKASDTAMYYCARIYYFGRLYFDFWGAGTLVTVSS VL: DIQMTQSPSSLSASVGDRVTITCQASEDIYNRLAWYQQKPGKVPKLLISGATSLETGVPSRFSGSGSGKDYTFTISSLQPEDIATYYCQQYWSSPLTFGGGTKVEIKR"
  attribute_measured: "EC50"
  assay_result: 44.1
- binder: "XENP35936 H2_L1.114 (antibody, V domains shown) VH: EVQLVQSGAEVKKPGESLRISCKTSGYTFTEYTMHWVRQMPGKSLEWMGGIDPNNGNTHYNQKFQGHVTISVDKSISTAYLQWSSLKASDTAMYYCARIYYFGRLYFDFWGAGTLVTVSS VL: DIQMTQSPSSLSASVGDRVTITCQASEDIYNRLAWYQQKPGKVPKLLISGATSLETGVPSRFSGSGSGKDYTFTISSLQPEDIATYYCQQYWSGPLTFGGGTKVEIKR"
  attribute_measured: "EC50"
  assay_result: 57.4

Switching to the query record.
Recorded result, XENP36025 H2.75_L1 (antibody, V domains shown) VH: EVQLVQSGAEVKKPGESLRISCKTSGYTFTEYTMHWVRQMPGKSLEWMGGIDPHNGNTHYNQKFQGHVTISVDKSISTAYLQWSSLKASDTAMYYCARIYYFGRLYFDFWGAGTLVTVSS VL: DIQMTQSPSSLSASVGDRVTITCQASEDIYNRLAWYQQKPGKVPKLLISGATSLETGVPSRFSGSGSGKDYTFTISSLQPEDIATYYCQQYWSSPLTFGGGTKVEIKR , EC50: 61.1
